Would you mind telling me the reported IC50 cytotoxicity (DAPI nuclear signal decrease) of each entry?
System: DAPI
protocol-summary: TAG lipid buildup inhibition with viability readout – cell-based, panel, Nile Red and DAPI fluorescence, H9c2, dose response (AID 651630);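 also: cells exposed to compound overnight before fixation and staining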
assay-setup: H9c2 cells, DAPI nuclear fluorescence (cytotoxicity counter-readout), oleic acid, run 2
Give the quantity in µM, number only.

Record `C[C@@H]1CN([C@H](C)CO)C(=O)c2c(c3ccccc3n2C)-c2ccccc2CO[C@H]1CN(C)Cc1ccc(Oc2ccccc2)cc1` , field IC50 cytotoxicity (DAPI nuclear signal decrease): 20

# IC50 cytotoxicity (DAPI nuclear signal decrease) (compound: `CCN(C(=O)COC(=O)c1ccc([N+](=O)[O-])o1)c1cccc2ccccc12` ) is 21.9
